// data source = paper PMC5540273

# Test system: LATS1;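 further: KINOMEscan kinase panel screen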
# EXPERIMENTAL_CONDITIONS: concentration: 1 μM, replicates: in singlicate; n = 1
ENDPOINT_LABEL: %Inh (%)
Express the result in % but write the number alone.

| COMPOUND | %Inh, % |
| --- | --- |
| Cc1cccc(-c2nc(C)cc(Nc3ccncc3)n2)n1 | 0 |
| O=C1NC(=O)C(N2CCc3ccccc32)=C1c1ccccc1Cl | 0 |

Ask | Would you kindly share the measured %Inh for Cc1cccc(-c2nc(Nc3cccc(C(N)=O)c3)c3ccccc3n2)n1 ?
Reply | 8

Ask | Would you kindly share the measured %Inh for COc1cc2ncn(-c3cc(OCC4CCCO4)c(C(N)=O)s3)c2cc1OC (centres unmarked) ?
Reply | 0

Ask | Would you kindly share the measured %Inh for Cc1cccc(-c2cc(Nc3ccncc3)c3ccccc3n2)n1 ?
Reply | 0
